test.parameters: in isopropanol, 313.15 K
reported.endpoint: solubility (mole fraction)
Answer as a number with no unit attached.

Exercise: Which solubility (mole fraction) value is on record for `CC(=O)c1cccc(O)c1` ?
Key: 0.324

----------
test.parameters: in methanol, 316.15 K
reported.endpoint: solubility (mole fraction)
Answer as a number with no unit attached.

Exercise: Which solubility (mole fraction) value is on record for `CC(=O)c1cccc(O)c1` ?
Key: 0.328

----------
test.parameters: in ethyl acetate, 313.15 K
reported.endpoint: solubility (mole fraction)
Answer as a number with no unit attached.

Exercise: Which solubility (mole fraction) value is on record for `CC(=O)c1cccc(O)c1` ?
Key: 0.277

----------
test.parameters: in isopropanol, 301.15 K
reported.endpoint: solubility (mole fraction)
Answer as a number with no unit attached.

Exercise: Which solubility (mole fraction) value is on record for `CC(=O)c1cccc(O)c1` ?
Key: 0.236

----------
test.parameters: in benzene, 319.15 K
reported.endpoint: solubility (mole fraction)
Answer as a number with no unit attached.

Exercise: Which solubility (mole fraction) value is on record for `CC(=O)c1cccc(O)c1` ?
Key: 0.037

----------
test.parameters: in benzene, 304.15 K
reported.endpoint: solubility (mole fraction)

Exercise: Which solubility (mole fraction) value is on record for `CC(=O)c1cccc(O)c1` ?
Key: 0.015

----------
test.parameters: in benzene, 292.15 K
reported.endpoint: solubility (mole fraction)
Answer as a number with no unit attached.

Exercise: Which solubility (mole fraction) value is on record for `CC(=O)c1cccc(O)c1` ?
Key: 0.00532

----------
test.parameters: in ethanol, 304.15 K
reported.endpoint: solubility (mole fraction)

Exercise: Which solubility (mole fraction) value is on record for `CC(=O)c1cccc(O)c1` ?
Key: 0.245

----------
test.parameters: in ethanol, 325.15 K
reported.endpoint: solubility (mole fraction)
Answer as a number with no unit attached.

Exercise: Which solubility (mole fraction) value is on record for `CC(=O)c1cccc(O)c1` ?
Key: 0.42

----------
test.parameters: in ethyl acetate, 325.15 K
reported.endpoint: solubility (mole fraction)
Answer as a number with no unit attached.

Exercise: Which solubility (mole fraction) value is on record for `CC(=O)c1cccc(O)c1` ?
Key: 0.384

----------
test.parameters: in ethanol, 322.15 K
reported.endpoint: solubility (mole fraction)
Answer as a number with no unit attached.

Exercise: Which solubility (mole fraction) value is on record for `CC(=O)c1cccc(O)c1` ?
Key: 0.391

----------
test.parameters: in methyl acetate, 292.15 K
reported.endpoint: solubility (mole fraction)
Answer as a number with no unit attached.

Exercise: Which solubility (mole fraction) value is on record for `CC(=O)c1cccc(O)c1` ?
Key: 0.171

----------
test.parameters: in isopropanol, 322.15 K
reported.endpoint: solubility (mole fraction)
Answer as a number with no unit attached.

Exercise: Which solubility (mole fraction) value is on record for `CC(=O)c1cccc(O)c1` ?
Key: 0.401

----------
test.parameters: in n-butanol, 316.15 K
reported.endpoint: solubility (mole fraction)
Answer as a number with no unit attached.

Exercise: Which solubility (mole fraction) value is on record for `CC(=O)c1cccc(O)c1` ?
Key: 0.309

----------
test.parameters: in ethyl acetate, 307.15 K
reported.endpoint: solubility (mole fraction)
Answer as a number with no unit attached.

Exercise: Which solubility (mole fraction) value is on record for `CC(=O)c1cccc(O)c1` ?
Key: 0.235

----------
test.parameters: in water, 310.15 K
reported.endpoint: solubility (mole fraction)
Answer as a number with no unit attached.

Exercise: Which solubility (mole fraction) value is on record for `CC(=O)c1cccc(O)c1` ?
Key: 0.00199

----------
test.parameters: in methanol, 310.15 K
reported.endpoint: solubility (mole fraction)
Answer as a number with no unit attached.

Exercise: Which solubility (mole fraction) value is on record for `CC(=O)c1cccc(O)c1` ?
Key: 0.279

----------
test.parameters: in isobutanol, 301.15 K
reported.endpoint: solubility (mole fraction)
Answer as a number with no unit attached.

Exercise: Which solubility (mole fraction) value is on record for `CC(=O)c1cccc(O)c1` ?
Key: 0.184

----------
test.parameters: in n-butanol, 292.15 K
reported.endpoint: solubility (mole fraction)
Answer as a number with no unit attached.

Exercise: Which solubility (mole fraction) value is on record for `CC(=O)c1cccc(O)c1` ?
Key: 0.163

----------
test.parameters: in methyl acetate, 319.15 K
reported.endpoint: solubility (mole fraction)
Answer as a number with no unit attached.

Exercise: Which solubility (mole fraction) value is on record for `CC(=O)c1cccc(O)c1` ?
Key: 0.346

----------
test.parameters: in water, 301.15 K
reported.endpoint: solubility (mole fraction)
Answer as a number with no unit attached.

Exercise: Which solubility (mole fraction) value is on record for `CC(=O)c1cccc(O)c1` ?
Key: 0.00113

----------
test.parameters: in benzene, 310.15 K
reported.endpoint: solubility (mole fraction)
Answer as a number with no unit attached.

Exercise: Which solubility (mole fraction) value is on record for `CC(=O)c1cccc(O)c1` ?
Key: 0.0238

----------
test.parameters: in isopropanol, 307.15 K
reported.endpoint: solubility (mole fraction)
Answer as a number with no unit attached.

Exercise: Which solubility (mole fraction) value is on record for `CC(=O)c1cccc(O)c1` ?
Key: 0.275

----------
test.parameters: in methyl acetate, 307.15 K
reported.endpoint: solubility (mole fraction)
Answer as a number with no unit attached.

Exercise: Which solubility (mole fraction) value is on record for `CC(=O)c1cccc(O)c1` ?
Key: 0.253

----------
test.parameters: in water, 304.15 K
reported.endpoint: solubility (mole fraction)

Exercise: Which solubility (mole fraction) value is on record for `CC(=O)c1cccc(O)c1` ?
Key: 0.00154

----------
test.parameters: in water, 316.15 K
reported.endpoint: solubility (mole fraction)

Exercise: Which solubility (mole fraction) value is on record for `CC(=O)c1cccc(O)c1` ?
Key: 0.00291

----------
test.parameters: in n-propanol, 313.15 K
reported.endpoint: solubility (mole fraction)
Answer as a number with no unit attached.

Exercise: Which solubility (mole fraction) value is on record for `CC(=O)c1cccc(O)c1` ?
Key: 0.299

----------
test.parameters: in methanol, 301.15 K
reported.endpoint: solubility (mole fraction)
Answer as a number with no unit attached.

Exercise: Which solubility (mole fraction) value is on record for `CC(=O)c1cccc(O)c1` ?
Key: 0.22

----------
test.parameters: in methanol, 307.15 K
reported.endpoint: solubility (mole fraction)
Answer as a number with no unit attached.

Exercise: Which solubility (mole fraction) value is on record for `CC(=O)c1cccc(O)c1` ?
Key: 0.255

----------
test.parameters: in n-propanol, 298.15 K
reported.endpoint: solubility (mole fraction)
Answer as a number with no unit attached.

Exercise: Which solubility (mole fraction) value is on record for `CC(=O)c1cccc(O)c1` ?
Key: 0.199

----------
test.parameters: in ethanol, 295.15 K
reported.endpoint: solubility (mole fraction)
Answer as a number with no unit attached.

Exercise: Which solubility (mole fraction) value is on record for `CC(=O)c1cccc(O)c1` ?
Key: 0.19

----------
test.parameters: in isobutanol, 298.15 K
reported.endpoint: solubility (mole fraction)
Answer as a number with no unit attached.

Exercise: Which solubility (mole fraction) value is on record for `CC(=O)c1cccc(O)c1` ?
Key: 0.166

----------
test.parameters: in n-butanol, 298.15 K
reported.endpoint: solubility (mole fraction)
Answer as a number with no unit attached.

Exercise: Which solubility (mole fraction) value is on record for `CC(=O)c1cccc(O)c1` ?
Key: 0.189

----------
test.parameters: in isopropanol, 289.15 K
reported.endpoint: solubility (mole fraction)

Exercise: Which solubility (mole fraction) value is on record for `CC(=O)c1cccc(O)c1` ?
Key: 0.176

----------
test.parameters: in water, 319.15 K
reported.endpoint: solubility (mole fraction)

Exercise: Which solubility (mole fraction) value is on record for `CC(=O)c1cccc(O)c1` ?
Key: 0.00362

----------
test.parameters: in methyl acetate, 289.15 K
reported.endpoint: solubility (mole fraction)
Answer as a number with no unit attached.

Exercise: Which solubility (mole fraction) value is on record for `CC(=O)c1cccc(O)c1` ?
Key: 0.16

----------
test.parameters: in water, 322.15 K
reported.endpoint: solubility (mole fraction)

Exercise: Which solubility (mole fraction) value is on record for `CC(=O)c1cccc(O)c1` ?
Key: 0.00456

----------
test.parameters: in isobutanol, 292.15 K
reported.endpoint: solubility (mole fraction)
Answer as a number with no unit attached.

Exercise: Which solubility (mole fraction) value is on record for `CC(=O)c1cccc(O)c1` ?
Key: 0.126

----------
test.parameters: in n-butanol, 304.15 K
reported.endpoint: solubility (mole fraction)

Exercise: Which solubility (mole fraction) value is on record for `CC(=O)c1cccc(O)c1` ?
Key: 0.221

----------
test.parameters: in isobutanol, 310.15 K
reported.endpoint: solubility (mole fraction)
Answer as a number with no unit attached.

Exercise: Which solubility (mole fraction) value is on record for `CC(=O)c1cccc(O)c1` ?
Key: 0.265
